- System: viable cells in culture
- Assay Remarks: Cell viability assay (CellTiter-Glo Luminescent Cell Viability Assay, ATP quantitation, percent of vehicle control)
Doc: threshold 80 % DMSO (exclusive). Items with Average Cell Viability after 24 Hours (% DMSO) beneath it return Met; others return Not met.

{"Compound": "Cc1nc(-n2nc(C)c(CC(=O)Nc3ccc(F)cc3)c2O)sc1C", "Category Label": "Not met"}
{"Compound": "CC(C)C(=O)NC(c1ccc(Cl)cc1Cl)c1ccc2cccnc2c1O (stereo not shown)", "Category Label": "Met"}
{"Compound": "CCCCN1C(C(=O)c2ccccc2)=C(OC(=O)CC)c2ccccc2S1(=O)=O", "Category Label": "Met"}
{"Compound": "CCOC(=O)N1CCN(C(=O)Cc2c(C)nn(-c3nc(C)c(C)s3)c2O)CC1", "Category Label": "Not met"}
{"Compound": "CCN(CC)c1ccc(/C=N/NC(=O)C2CC2c2ccccc2)c(O)c1 (stereo not shown)", "Category Label": "Met"}
{"Compound": "CCCOCc1cc(CN2CCCCC2)c(O)c2ncccc12", "Category Label": "Met"}
{"Compound": "CC(=O)Oc1ccc(C2Nc3ccc4ccccc4c3C3C=CCC32)c(OC(C)=O)c1 (stereo not shown)", "Category Label": "Met"}
{"Compound": "CC(C)C(=O)NC(c1cccs1)c1cc(Cl)c2cccnc2c1O (stereo not shown)", "Category Label": "Met"}
{"Compound": "Cc1nc(-n2nc(C)c(CCC(=O)Nc3ccc(F)cc3)c2O)sc1C", "Category Label": "Not met"}
{"Compound": "COC(=O)COc1ccc(NC(=O)c2ccc(F)cc2)cc1", "Category Label": "Met"}
{"Compound": "CCCCN(CC)C(=O)CSc1ccccc1", "Category Label": "Not met"}
{"Compound": "O=C(Cn1cnc2ccccc21)NCCCN1CCOCC1", "Category Label": "Not met"}
{"Compound": "CCCn1c(=O)n(CC)c(=O)c2ccccc21", "Category Label": "Not met"}
{"Compound": "NCc1ccc(CNC(=O)c2cc(-c3cccs3)on2)cc1", "Category Label": "Not met"}
{"Compound": "Nc1ccc(OCCCc2ccccc2)cc1", "Category Label": "Not met"}
{"Compound": "O=C(NC(c1ccc(Cl)cc1)c1ccc2cccnc2c1O)C1CCCCC1 (stereo not shown)", "Category Label": "Met"}
{"Compound": "CCOC(=O)C(=O)Nc1ccc(S(=O)(=O)N2CC(C)CC(C)C2)cc1 (stereo not shown)", "Category Label": "Not met"}
{"Compound": "CC1(C(=O)O)CC(=O)N=C2C=CC(Cl)=CN21 (stereo not shown)", "Category Label": "Not met"}
{"Compound": "CCC(C)c1ccccc1OCCCCN1CCN(C)CC1 (stereo not shown)", "Category Label": "Not met"}
{"Compound": "COc1cccc(/C=N/NC(=O)C2CC2c2ccccc2)c1O (stereo not shown)", "Category Label": "Not met"}
{"Compound": "O=C(NCCN1CCNC1=O)c1cc(-c2cccs2)on1", "Category Label": "Met"}
{"Compound": "O=C(CNC(=O)c1cc(-c2cccs2)on1)c1ccccc1", "Category Label": "Not met"}
{"Compound": "O=C(O)C1C2CCC(O2)C1C(=O)N1CCN(c2ccc(F)cc2)CC1 (stereo not shown)", "Category Label": "Met"}
{"Compound": "CC(=O)NC(c1ccc(C(C)C)cc1)c1cc(Cl)c2cccnc2c1O (stereo not shown)", "Category Label": "Met"}
{"Compound": "CCCNC(=O)c1cc(-c2cccs2)on1", "Category Label": "Not met"}
{"Compound": "CCOC(=O)COc1ccc2c(=O)c(-c3ccccc3Cl)c(C)oc2c1C", "Category Label": "Met"}
{"Compound": "CC(C)(C)c1ccc(C(=O)N/N=C/c2c(O)ccc3ccccc23)cc1", "Category Label": "Met"}
{"Compound": "O=C(CN1C(C(=O)c2ccccc2)=C(O)c2ccccc2S1(=O)=O)c1ccc(Br)cc1", "Category Label": "Met"}
{"Compound": "Cc1cn(-c2ccc3c(Cl)cc(Cl)c(O)c3n2)nc1C", "Category Label": "Met"}
{"Compound": "CCCCCOC(=O)c1c(C)oc2ccc(NS(=O)(=O)c3ccc(OC)cc3)cc12", "Category Label": "Met"}
{"Compound": "O=C(O)/C=C1\\NC(=O)c2ccccc21", "Category Label": "Not met"}
{"Compound": "O=C(CSc1ncccc1C(=O)O)Nc1ccc(Oc2ccccc2)cc1", "Category Label": "Not met"}
